These data points were gathered from PubChem BioAssay AID1159580.

# method notes: chemical genetic growth profiling, strain panel (AID 1159580);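 also: tested at 20 µM; growth read once vehicle control cultures reached saturation at 30 °C; 1 = growth at the plate median or of vehicle wells; lower values mean less growth of the strain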
# settings: S. cerevisiae deletion strains, growth OD, locus YLR102C, strain apc9, active compounds read low
The whole screen tested about 5,500 compounds, of which about 2,000 (36%) were called active. Roughly 18% stayed inconclusive and do not appear here. The list shows a part of the results.
Would you kindly list normalized growth for each of these molecules?
Give the value as a plain number.

q: Check the records and state normalized growth for C[N+]1(C)CCCC(OC(=O)C(O)(c2ccccc2)c2ccccc2)C1 (stereo unspecified)
a: 0.982

q: Give a short answer stating reported normalized growth for Cn1c(=O)c2c(ncn2C)n(C)c1=O .
a: 1.01

q: Quick one: give measured normalized growth for COc1cc2c(cc1OC)C(C)NCC2 (stereo unspecified)
a: 0.991

q: Give me measured normalized growth, please, for this molecule: O[C@H]1[C@H](O)[C@@H](O)C2OC[C@H]1O2
a: 0.984

q: Fill in reported normalized growth for this entry: COP(=O)(NC(C)=O)SC (stereo unspecified)
a: 0.994

q: Read the entry O=C(CCc1ccc(O)cc1)c1c(O)cc(O)cc1O and write its reported normalized growth.
a: 1

q: Note normalized growth for the molecule shown: CC(=O)OC[C@@]1(O)C[C@@]23CCC4c5ccoc5CC[C@]4(C)C2CC[C@@H]1C3 (stereo partly specified)
a: 0.973

q: Consider the molecule C=C[C@H]1CN2CC[C@H]1C[C@H]2[C@H](O)c1ccnc2ccccc12 . State its measured normalized growth.
a: 0.976

q: Quick one: give measured normalized growth for CC(=O)OCC1=C(C(=O)O)N2C(=O)[C@@H](NC(=O)CSc3ccncc3)[C@H]2SC1
a: 0.988

q: Note down normalized growth recorded for CNC(C)[C@@H]1CC[C@@H](N)[C@@H](OC2[C@@H](N)C[C@@H](N)[C@H](OC3OC[C@](C)(O)[C@H](NC)[C@H]3O)[C@H]2O)O1 (stereo partly specified)
a: 1.03

q: Please give measured normalized growth of the following entry: Cn1c(=O)[nH]c2ncn(C)c2c1=O
a: 0.995
